Test system: HEK-293T
Assay: Multiplex assay against HEK293T
Format: toxicity, cell-based
Conditions: human, 24 h, 10 µM, compound concentration 10 uM, replicate 2
recorded-endpoint: Total Cell Count

COc1cc(OC2CCN(C(C)=O)CC2)ccc1C(=O)N1CCC(N2C(=O)OCc3ccccc32)CC1 393
COc1cc(C(=O)N2CC[C@@H](O)[C@@H](N)C2)cc2nc(-c3cc4ccccc4n3CC3CC3)n(C)c12.Cl 411
CCc1nn2c(C)cc(C)nc2c1Cc1ccc(-c2nnc(C3CCNCC3)o2)cc1 389

###

Tested on: HEK-293T
Assay: Multiplex assay against HEK293T
Assay type: toxicity, cell-based
Conditions: human, 12 h, 10 µM, compound concentration 10 uM, replicate 2
Use 40% as the dividing line for Population Tubulin-Different-Phenotype (%), with the line itself on the true side and lower values as false.

compound	class-label
CCCCC[C@H](O)/C=C/[C@H]1[C@H](O)CC(=O)[C@@H]1CCCCCCC(=O)O [ALPROSTADIL]	false
O=C(Nc1cc(-c2ccccc2)nn1-c1ccccc1F)c1ccc([N+](=O)[O-])cc1	true
COC(c1ccccc1)(c1ccccc1)[C@H](Oc1nc(C)cc(C)n1)C(=O)O [AMBRISENTAN]	false
C[C@H](NC(=O)CNC(=O)c1cccc(Cl)c1)c1ccccc1	false
CC(C)(C)c1ccc(CSc2cnn(C(C)(C)C)c(=O)c2Cl)cc1 [PYRIDABEN]	false
Cc1c(Cc2ccc3ccccc3n2)c2cc(F)ccc2n1CC(=O)O [TIMAPIPRANT]	false
CC(C)(O)C(=O)N1CCN(c2ccc(C(F)(F)F)c(C3=C(c4c[nH]c5ccccc45)C(=O)NC3=O)c2)CC1	true
COCCn1c(C)c(C)s/c1=N\C(=O)C1C(C)(C)C1(C)C	false
COc1cc(Nc2ncc3c(n2)-c2ccc(Cl)cc2C(c2c(F)cccc2OC)=NC3)ccc1C(=O)O [ALISERTIB]	true
Nc1nc(-c2ccco2)c2cnn(Cc3ccccc3F)c2n1	false

FYI, the data here is from ChEMBL document CHEMBL5058577.
